Numbers sourced from patent US11001570B2.

target: BCL6::BCOR (Homo sapiens, UniProt P41182, C67R/C84N/C8Q); construct: BCL6 (amino acids 5 to 129, with the following changes to the natural protein); test: BCL6::BCOR ULight TR-FRET assay
pIC50: −log10 of the molar value.
ASSAY READOUT: pIC50

CNC(=O)COc1cc2cc(Nc3nc(N4CCC(F)CC4)ncc3Cl)ccc2n(C(C)C)c1=O [Compound I-84] : 8.00
CCN(CC)CCCCC1CCCN(c2ncc(Cl)c(Nc3ccc4c(c3)cc(OCC(=O)NC)c(=O)n4C)n2)C1 (centres unmarked) [Compound I-126] : 8.15
CNC(=O)COc1cc2cc(Nc3nc(N4CCN(CCOC)CC4)ncc3Cl)ccc2n(C)c1=O [Compound I-3] : 8.15
CCCN(CCC)CCC1CCN(c2ncc(Cl)c(Nc3ccc4c(c3)cc(OCC(=O)NC)c(=O)n4C)n2)CC1 [Compound I-128] : 8.15
CNC(=O)COc1cc2cc(Nc3nc(N4CCC(C(=O)N(C)C)CC4)ncc3Cl)ccc2n(CCCO)c1=O [Compound I-151] : 8.22

a: CNC(=O)COc1cc2cc(Nc3nc(N4CCC(F)(F)CC4)ncc3Cl)ccc2n(C)c1=O [Compound I-26]
b: CC1CCN(c2ncc(Cl)c(Nc3ccc4c(c3)cc(OCC(=O)O)c(=O)n4C)n2)CC1 [Compound I-121]
Would you kindly point out which of a and b has the smaller pIC50 figure? Respond using the label that marks the chosen record. b

---

biological target: BCL6::BCOR (Homo sapiens, UniProt P41182, C67R/C84N/C8Q); construct: BCL6 (amino acids 5 to 129, with the following changes to the natural protein); experiment: BCL6::BCOR ULight TR-FRET assay
ASSAY READOUT: IC50 (nM)

CCCn1c(=O)c(OCC(=O)NC)cc2cc(Nc3nc(N4CCC(F)(F)CC4)ncc3Cl)ccc21 [Compound I-81] : 7
CNC(=O)COc1cc2cc(Nc3nc(N4CCC(C(=O)O)CC4)ncc3Cl)ccc2n(CC2CC2)c1=O [Compound I-86] : 3
CNC(=O)COc1cc2cc(Nc3nc(N4C[C@H](C)C[C@H](C)C4)ncc3Cl)ccc2n(CCN(C)C)c1=O [Compound I-159] : 85

A: C[C@@H]1C[C@H](C)CN(c2ncc(Cl)c(Nc3ccc4c(c3)cc(SCC(=O)O)c(=O)n4C)n2)C1 [Compound I-150]
B: CCCn1c(=O)c(OCC(=O)NC)cc2cc(Nc3nc(N4CCC(C(=O)O)CC4)ncc3Cl)ccc21 [Compound I-78]
C: CNC(=O)COc1cc2cc(Nc3nc(N4CCC(Cl)CC4)ncc3Cl)ccc2n(C)c1=O [Compound I-34]
D: CN(C)C(=O)COc1cc2cc(Nc3nc(N4CCC(C(=O)N(C)C)CC4)ncc3Cl)ccc2n(C)c1=O [Compound I-171]
Given 4 compounds, produce a descending ranking by IC50. Reply with the item labels sorted in the order that was asked for. A, D, C, B
(A: 85 nM, D: 39 nM, C: 6 nM, B: 4 nM)

---

molecular target: BCL6::BCOR (Homo sapiens, UniProt P41182, C67R/C84N/C8Q); construct: BCL6 (amino acids 5 to 129, with the following changes to the natural protein); assay: BCL6::BCOR ULight TR-FRET assay
ASSAY READOUT: IC50 (nM)

Sample answers from the record:
CCOC1CCCN(c2ncc(Cl)c(Nc3ccc4c(c3)cc(OCC(=O)O)c(=O)n4C)n2)C1 (stereo not drawn) : 7
CCCn1c(=O)c(OCC(=O)NC)cc2cc(Nc3nc(N4C[C@H](C)C[C@H](C)C4)ncc3Cl)ccc21 : 11
C[C@@H]1C[C@H](C)CN(c2ncc(Cl)c(Nc3ccc4c(c3)cc(OCC(=O)OCCCN(C)C)c(=O)n4C)n2)C1 : 9
CNC(=O)COc1cc2cc(Nc3nc(N4C[C@H]5CC[C@@H](C4)O5)ncc3Cl)ccc2n(C)c1=O : 5

P: CNC(=O)COc1cc2cc(Nc3nc(N4CCC(F)(F)CC4)ncc3Cl)ccc2n(CC2CC2)c1=O
Q: C[C@@H]1C[C@H](C)CN(c2ncc(F)c(Nc3ccc4c(c3)cc(OCC(=O)O)c(=O)n4C)n2)C1
R: CCN1CCN(C2CCN(c3ncc(Cl)c(Nc4ccc5c(c4)cc(OCC(=O)NC)c(=O)n5C)n3)CC2)CC1
S: CNC(=O)COc1cc2cc(Nc3nc(N4C[C@H](C)C[C@H](C)C4)ncc3Cl)ccc2n(C)c1=O
Arrange the 4 compounds from largest to smallest IC50. To answer, arrange all of the labels according to the requested order. R, Q, P, S

---

target: BCL6::BCOR (Homo sapiens, UniProt P41182, C67R/C84N/C8Q); construct: BCL6 (amino acids 5 to 129, with the following changes to the natural protein); assay: BCL6::BCOR ULight TR-FRET assay
ASSAY READOUT: IC50 (nM)

# count of solved cases: 10
CNC(=O)COc1cc2cc(Nc3nc(N4CC(C)(C)CC(C)(C)C4)ncc3Cl)ccc2n(C)c1=O : 13
CNC(=O)COc1cc2cc(Nc3nc(N4CCC(CCN5CCCCC5)CC4)ncc3Cl)ccc2n(C)c1=O : 6
CNC(=O)COc1cc2cc(Nc3nc(N4CCC(F)(F)CC4)ncc3Cl)cc(OC)c2n(C)c1=O : 4
CNC(=O)COc1cc2cc(Nc3nc(N4CCC(C(=O)N(C)C)CC4)ncc3Cl)c(Cl)cc2n(C)c1=O : 281
CNC(=O)COc1cc2cc(Nc3nc(N4CCCC(C)(C)C4)ncc3Cl)ccc2n(C)c1=O : 9
CNC(=O)COc1cc2cc(Nc3nc(N4CCC(F)CC4)ncc3Cl)cc(OC)c2n(C)c1=O : 4
CNC(=O)COc1cc2cc(Nc3nc(N4C[C@H](F)C[C@@H](F)C4)ncc3Cl)ccc2n(C)c1=O : 9
CC1CCCN(c2ncc(Cl)c(Nc3ccc4c(c3)cc(OCC(=O)O)c(=O)n4C)n2)C1 (stereo not drawn) : 13
CNC(=O)COc1cc2cc(Nc3nc(N4CCO[C@H](C)C4)ncc3Cl)ccc2n(C)c1=O : 7
CNC(=O)COc1cc2cc(Nc3nc(N4CCC(N5CCCC5)CC4)ncc3Cl)ccc2n(C)c1=O : 8

1: Cn1c(=O)c(OCC(=O)O)cc2cc(Nc3nc(N4CCCN(c5ccccc5)CC4)ncc3Cl)ccc21
2: CNC(=O)COc1cc2cc(Nc3nc(N4CCC(C)CC4)ncc3Cl)ccc2n(C)c1=O
Select one: 1 or 2 . Criterion: greater recorded IC50. # respond with the chosen item's label 1

P: CCNC(=O)C1CCCN(c2ncc(Cl)c(Nc3ccc4c(c3)cc(OCC(=O)O)c(=O)n4C)n2)C1 (stereo not drawn)
Q: CNC(=O)COc1cc2cc(Nc3nc(N4CCC[C@@H](C(=O)N(C)C)C4)ncc3Cl)ccc2n(C)c1=O
Returns: the argument ( P or Q ) having the larger IC50. Response format: the label of the selected entry. P
(P: 10 nM, Q: 6 nM)

---

molecular target: BCL6::BCOR (Homo sapiens, UniProt P41182, C67R/C84N/C8Q); construct: BCL6 (amino acids 5 to 129, with the following changes to the natural protein); experiment: BCL6::BCOR ULight TR-FRET assay
ASSAY READOUT: IC50 (nM)

Reference set (5 entries):
CNC(=O)COc1cc2cc(Nc3nc(N4CCC(C(F)(F)F)CC4)ncc3Cl)ccc2n(C)c1=O : 62
CNC(=O)COc1cc2cc(Nc3nc(N4CCN(CCN(C)C)C(=O)C4)ncc3Cl)ccc2n(C)c1=O : 10
COC(=O)COc1cc2cc(Nc3nc(N4CCC(F)CC4)ncc3Cl)ccc2n(C)c1=O : 9
CNC(=O)COc1cc2cc(Nc3nc(N4CCC5(CCN(C)CC5)CC4)ncc3Cl)ccc2n(C)c1=O : 5
CNC(=O)COc1cc2cc(Nc3nc(N4CCC(C(=O)N(C)C)CC4)ncc3Cl)cc(OC)c2n(C)c1=O : 3

I: CNC(=O)COc1cc2cc(Nc3nc(N4CCC(N(C)C)CC4)ncc3Cl)ccc2n(C)c1=O
II: CNC(=O)COc1cc2cc(Nc3nc(N4C[C@H](CO)N[C@H](C)C4)ncc3Cl)ccc2n(C)c1=O
Which item exceeds the other in IC50, I or II ? Answer by quoting the chosen item's label. II
(II: 41 nM, I: 7 nM)

A: CNC(=O)COc1cc2cc(Nc3nc(N4CCC(C(=O)N(C)CCOCCN)CC4)ncc3Cl)ccc2n(C)c1=O
B: CCOC(=O)CC1CCCN(c2ncc(Cl)c(Nc3ccc4c(c3)cc(OCC(=O)O)c(=O)n4C)n2)C1 (stereo not drawn)
Dear colleague, could you let me know whether A or B has the lower recorded IC50? Thanks. Which one? Tell me its label. A

a: CNC(=O)COc1cc2cc(Nc3nc(N4CCC(C(=O)N(C)C)CC4)ncc3Cl)ccc2n(C(C)C)c1=O
b: CNC(=O)COc1cc2cc(Nc3nc(N4CCCC(F)CC4)ncc3F)ccc2n(C)c1=O (stereo not drawn)
Looking at a and b , which one comes out lower in IC50 terms? Answer with the label corresponding to your selection. a
